Here, each record is paired with measured Anti-CD28 Fab signal in the presence of CD28 data.
target: T1, anti-CD28 Fab (SEQ ID NOs: 202, 203); assay: phage ELISA on captured Fab, wells pre-incubated with CD28 antigen (competitor);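 also: clonal phage ELISA with wells pretreated with CD28 plus blocking buffer before phage addition, bound phage detected by HRP-linked anti-M13 antibody, reference wells got blocking buffer only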
T1 construct: biotinylated and captured on neutravidin coated plates in the phage ELISA
T1 sequence (VH, as listed by the source, chain 1 of 2): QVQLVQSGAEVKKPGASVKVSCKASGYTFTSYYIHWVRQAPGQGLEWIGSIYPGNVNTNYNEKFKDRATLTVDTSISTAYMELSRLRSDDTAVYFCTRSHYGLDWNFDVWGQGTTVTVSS
T1 sequence (VL, as listed by the source, chain 2 of 2): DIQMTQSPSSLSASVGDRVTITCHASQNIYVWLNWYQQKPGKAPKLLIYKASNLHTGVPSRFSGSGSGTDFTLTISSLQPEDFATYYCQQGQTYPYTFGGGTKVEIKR
# print the numeric value only

Solved entries:
YCDGHSLQYMSKCL (on phage, pIII fusion) [Phage-589]
0.06
YCDGHDVEYMSKCL (on phage, pIII fusion) [Phage-486]
0.05
YCEGHLGQYMEKCL (on phage, pIII fusion) [Phage-548]
0.08
YCDGHLSEYMSKCL (on phage, pIII fusion) [Phage-498]
0.06
YCDGHELKYMLKCL (on phage, pIII fusion) [Phage-502]
0.08
YCDGHNGVYWWKCI (on phage, pIII fusion) [Phage-549]
0.07
YCEGHLPQYMRPCL (on phage, pIII fusion) [Phage-465]
0.08

Lookup: Item YCEGHLSQYMSKCL (on phage, pIII fusion) [Phage-466] has what recorded Anti-CD28 Fab signal in the presence of CD28?
Found: 0.07
